Molecular target: alpha2C receptor (Homo sapiens, UniProt P18825)
Construct: expressed in transfected cells; host or cells: NIH-3T3 cells
Sequence (P18825 whole entry): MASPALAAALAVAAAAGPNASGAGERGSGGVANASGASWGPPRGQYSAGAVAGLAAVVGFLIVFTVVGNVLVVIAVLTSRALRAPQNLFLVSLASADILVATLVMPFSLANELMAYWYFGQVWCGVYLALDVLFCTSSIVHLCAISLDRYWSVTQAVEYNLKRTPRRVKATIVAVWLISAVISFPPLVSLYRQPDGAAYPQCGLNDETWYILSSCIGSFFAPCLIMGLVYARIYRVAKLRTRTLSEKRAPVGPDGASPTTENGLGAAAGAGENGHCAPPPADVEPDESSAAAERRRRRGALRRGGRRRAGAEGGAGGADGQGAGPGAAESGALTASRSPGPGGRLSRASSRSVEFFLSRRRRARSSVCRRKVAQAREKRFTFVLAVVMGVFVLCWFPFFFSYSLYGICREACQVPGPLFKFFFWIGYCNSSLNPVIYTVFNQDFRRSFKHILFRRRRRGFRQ
Assay: Receptor Selection and Amplification Technology (RSAT) assay, alpha2C
Assay type: cell-based
Settings: RSAT; ratio of maximal effect to that of standard full agonist brimonidine (UK14304); value in brackets
Reported values of Alpha 2C intrinsic activity (efficacy) for individual entries
// no unit, no text: just the number

Reference set (4 entries):
[[record]]
molecule = "Fc1cccc(C(c2cccnc2)c2c[nH]cn2)c1Cl (stereo not shown)"
measurement_kind = "Alpha 2C intrinsic activity (efficacy)"
experimental_result = 0.87

[[record]]
molecule = "Fc1c(C(c2cccnc2)c2c[nH]cn2)cccc1C(F)(F)F (stereo not shown)"
measurement_kind = "Alpha 2C intrinsic activity (efficacy)"
experimental_result = 0.42

[[record]]
molecule = "Clc1cccc(C(c2cccnc2)c2c[nH]cn2)c1Cl (stereo not shown)"
measurement_kind = "Alpha 2C intrinsic activity (efficacy)"
experimental_result = 0.87

[[record]]
molecule = "Cc1cccc(C(c2ccncc2)c2c[nH]cn2)c1C (stereo not shown)"
measurement_kind = "Alpha 2C intrinsic activity (efficacy)"
experimental_result = 0.49


Any idea what Alpha 2C intrinsic activity (efficacy) came out for Fc1c(Cl)cccc1C(c1cccnc1)c1cnc[nH]1 (stereo not shown) on alpha2C receptor (Homo sapiens, UniProt P18825)?
0.55

Any idea what Alpha 2C intrinsic activity (efficacy) came out for Cc1c(Cl)cccc1C(c1ccccn1)c1c[nH]cn1 (stereo not shown) on alpha2C receptor (Homo sapiens, UniProt P18825)?
0.53

Any idea what Alpha 2C intrinsic activity (efficacy) came out for c1ccc(C(c2cccnc2)c2c[nH]cn2)cc1 (stereo not shown) on alpha2C receptor (Homo sapiens, UniProt P18825)?
0.16

* * *

Reported values of pEC50 for individual entries
Biological target: alpha2B receptor (Homo sapiens, UniProt P18089)
Construct: expressed in transfected cells; host or cells: NIH-3T3 cells
Sequence (P18089 whole entry): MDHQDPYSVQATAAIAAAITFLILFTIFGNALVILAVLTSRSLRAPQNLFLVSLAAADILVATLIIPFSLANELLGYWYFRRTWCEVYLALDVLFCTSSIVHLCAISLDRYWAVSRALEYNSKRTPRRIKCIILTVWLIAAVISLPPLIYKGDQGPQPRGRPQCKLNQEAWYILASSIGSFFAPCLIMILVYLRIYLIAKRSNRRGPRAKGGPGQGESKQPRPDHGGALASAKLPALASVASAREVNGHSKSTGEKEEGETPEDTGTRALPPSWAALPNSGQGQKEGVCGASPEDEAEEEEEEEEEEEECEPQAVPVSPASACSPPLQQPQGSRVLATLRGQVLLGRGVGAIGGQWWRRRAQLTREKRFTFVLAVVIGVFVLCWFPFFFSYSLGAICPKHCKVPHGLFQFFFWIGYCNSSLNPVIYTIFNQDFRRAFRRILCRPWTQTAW
Test: Receptor Selection and Amplification Technology (RSAT) assay, alpha2B
Type: cell-based
Conditions: RSAT, transfected NIH-3T3 cells; value outside brackets; read-out: Alpha 2B EC50 (potency)
As a rule, pEC50 stands for the negative log10 of the concentration, concentration in M.

Reference set (2 entries):
[[record]]
compound = "Cc1c(Cl)cccc1C(c1ccccn1)c1c[nH]cn1 (stereo not shown)"
target_or_test_system = "alpha2B receptor (Homo sapiens, UniProt P18089)"
experimental_result = 8.11

[[record]]
compound = "c1ccc(C(c2cccnc2)c2c[nH]cn2)cc1 (stereo not shown)"
target_or_test_system = "alpha2B receptor (Homo sapiens, UniProt P18089)"
experimental_result = 6.72


// pEC50 lookup, key: Clc1cccc(C(c2ccncc2)c2c[nH]cn2)c1Cl (stereo not shown)
8.49

// pEC50 lookup, key: Cc1cccc(C(c2ccncc2)c2c[nH]cn2)c1C (stereo not shown)
8.36

// pEC50 lookup, key: Clc1cccc(C(c2cccnc2)c2c[nH]cn2)c1Cl (stereo not shown)
8.79

// pEC50 lookup, key: Fc1cccc(C(c2cccnc2)c2c[nH]cn2)c1 (stereo not shown)
6.65

// pEC50 lookup, key: Cc1ccccc1C(c1cccnc1)c1c[nH]cn1 (stereo not shown)
6.59

// pEC50 lookup, key: Fc1c(C(c2ccncc2)c2c[nH]cn2)cccc1C(F)(F)F (stereo not shown)
7.35

// pEC50 lookup, key: Cc1cccc(C(c2cccnc2)c2c[nH]cn2)c1C (stereo not shown)
9.48

// pEC50 lookup, key: Cc1ccccc1C(c1ccccn1)c1c[nH]cn1 (stereo not shown)
6.75

// pEC50 lookup, key: Fc1ccccc1C(c1ccncc1)c1c[nH]cn1 (stereo not shown)
6.46

// pEC50 lookup, key: Fc1c(Cl)cccc1C(c1ccccn1)c1cnc[nH]1 (stereo not shown)
7.49

// pEC50 lookup, key: Fc1c(C(c2cccnc2)c2c[nH]cn2)cccc1C(F)(F)F (stereo not shown)
8.28

* * *

Target: alpha2B receptor (Homo sapiens, UniProt P18089)
Construct: expressed in transfected cells; host or cells: NIH-3T3 cells
Test: Receptor Selection and Amplification Technology (RSAT) assay, alpha2B
Type: cell-based
Conditions: RSAT, transfected NIH-3T3 cells; value outside brackets; read-out: Alpha 2B EC50 (potency)
Reported values of pEC50 for individual entries
As a rule, pEC50 stands for the negative log10 of the concentration, concentration in M.

Reference set (5 entries):
[[record]]
molecule = "Fc1ccccc1C(c1ccccn1)c1c[nH]cn1 (stereo not drawn)"
experimental_result = 6.00

[[record]]
molecule = "Cc1c(Cl)cccc1C(c1ccncc1)c1c[nH]cn1 (stereo not drawn)"
experimental_result = 7.99

[[record]]
molecule = "Cc1c(F)cccc1C(c1ccncc1)c1c[nH]cn1 (stereo not drawn)"
experimental_result = 7.14

[[record]]
molecule = "Fc1cccc(C(c2cccnc2)c2c[nH]cn2)c1F (stereo not drawn)"
experimental_result = 7.17

[[record]]
molecule = "Fc1cccc(C(c2ccncc2)c2c[nH]cn2)c1F (stereo not drawn)"
experimental_result = 6.08


// pEC50 lookup, key: c1ccc(C(c2ccncc2)c2c[nH]cn2)cc1 (stereo not drawn)
6.51

// pEC50 lookup, key: Fc1cccc(C(c2ccccn2)c2c[nH]cn2)c1 (stereo not drawn)
6.56

// pEC50 lookup, key: c1ccc(C(c2ccccn2)c2c[nH]cn2)cc1 (stereo not drawn)
6.33

// pEC50 lookup, key: Fc1cccc(C(c2ccncc2)c2c[nH]cn2)c1 (stereo not drawn)
6.25
